// provenance: the Human Domainome abundance scans (Beltran et al. 2025)

B1: Histidine--tRNA ligase, cytoplasmic, residues 8 to 45; numbered along this chain, P12081 (parent)
chain: EELVKLQGERVRGLKQQKASAELIEEEVAKLLKLKAQL

# Variants of: B1
# test_name: abundance fitness (aPCA) (normalised: wild type 0, dead -1); higher = more abundant; growth selection in yeast, the domain comes from the species named
# condition_details: Homo sapiens
Given measured abundance fitness, output 1 if it is greater than or equal to -0.2 and -1 if not.

residue_string	qualitative_label
EELVKLQGERVRTLKQQKASAELIEEEVAKLLKLKAQL	1
EELVKLQGERVRGLKQQKASAELIEEEVADLLKLKAQL	1
EELVKFQGERVRGLKQQKASAELIEEEVAKLLKLKAQL	1
EELVKLQGERVRGLKQQKASAELIEEKVAKLLKLKAQL	-1
EELVKLQGERFRGLKQQKASAELIEEEVAKLLKLKAQL	-1

Item EQLVKLQGERVRGLKQQKASAELIEEEVAKLLKLKAQL with abundance fitness of -0.2 or above?
-1

Check this variant for abundance fitness at or above -0.2: EELVKLQGGRVRGLKQQKASAELIEEEVAKLLKLKAQL
-1

Record EELVKLQGERVRGLKQQKASAILIEEEVAKLLKLKAQL ; criterion: abundance fitness no lower than -0.2. Met?
1

Please indicate if the recorded abundance fitness for EEAVKLQGERVRGLKQQKASAELIEEEVAKLLKLKAQL meets or exceeds -0.2.
1

Given EELVKLQGERVRGLKQQKASAELIEEEVWKLLKLKAQL , state whether its abundance fitness is at least -0.2.
-1

Please indicate if the recorded abundance fitness for AELVKLQGERVRGLKQQKASAELIEEEVAKLLKLKAQL meets or exceeds -0.2.
-1

Check the entry EELVKLQGERVRGLKQQKASAELIEEEVAKLLKGKAQL : does abundance fitness equal or exceed -0.2?
1

Item EELVKLQGERVRGLKQQKASAELIEHEVAKLLKLKAQL with abundance fitness of -0.2 or above?
1

I'd appreciate it if you could say whether EELVKLQGERTRGLKQQKASAELIEEEVAKLLKLKAQL has abundance fitness at least equal to -0.2.
1

Assess whether reported abundance fitness for EELVKLQGERVRGLKQQKATAELIEEEVAKLLKLKAQL sits at -0.2 or higher.
1

Item EELVKLQGMRVRGLKQQKASAELIEEEVAKLLKLKAQL with abundance fitness of -0.2 or above?
-1

Does EELVKLQGERVDGLKQQKASAELIEEEVAKLLKLKAQL have a reported abundance fitness of at least -0.2?
1

Determine whether measured abundance fitness meets or exceeds -0.2 for EELVKLQGERVRGLKQQKASAELHEEEVAKLLKLKAQL
1

Could you verify whether the entry EELVKLQGERVRGLKQQKASAELIEEETAKLLKLKAQL shows abundance fitness of no less than -0.2?
1

Check the entry EEVVKLQGERVRGLKQQKASAELIEEEVAKLLKLKAQL : does abundance fitness equal or exceed -0.2?
-1
